Biological target: MUS81-ECE2 (Homo sapiens, UniProt P0DPD6+Q96NY9)
Sequence (P0DPD6 whole entry): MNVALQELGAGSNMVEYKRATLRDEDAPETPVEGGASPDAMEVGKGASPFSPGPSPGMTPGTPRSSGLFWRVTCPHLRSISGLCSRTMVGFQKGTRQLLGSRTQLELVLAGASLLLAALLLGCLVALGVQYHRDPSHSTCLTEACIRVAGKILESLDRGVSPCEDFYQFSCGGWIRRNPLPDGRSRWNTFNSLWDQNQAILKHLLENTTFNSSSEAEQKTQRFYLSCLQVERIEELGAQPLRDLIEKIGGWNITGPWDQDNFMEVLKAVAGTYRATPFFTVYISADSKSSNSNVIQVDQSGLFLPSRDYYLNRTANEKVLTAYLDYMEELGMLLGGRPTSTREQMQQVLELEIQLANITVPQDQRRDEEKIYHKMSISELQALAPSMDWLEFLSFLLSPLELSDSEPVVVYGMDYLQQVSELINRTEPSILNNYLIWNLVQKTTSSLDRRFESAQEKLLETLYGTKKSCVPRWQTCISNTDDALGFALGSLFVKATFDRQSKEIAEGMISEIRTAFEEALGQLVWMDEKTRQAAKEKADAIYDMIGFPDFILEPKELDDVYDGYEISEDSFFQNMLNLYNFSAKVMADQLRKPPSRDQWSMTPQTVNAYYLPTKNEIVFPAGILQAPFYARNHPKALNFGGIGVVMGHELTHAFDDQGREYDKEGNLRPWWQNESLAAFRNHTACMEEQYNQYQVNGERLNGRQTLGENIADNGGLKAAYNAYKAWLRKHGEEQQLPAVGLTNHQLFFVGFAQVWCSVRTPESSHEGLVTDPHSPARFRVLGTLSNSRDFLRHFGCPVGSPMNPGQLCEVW
Sequence (Q96NY9 whole entry): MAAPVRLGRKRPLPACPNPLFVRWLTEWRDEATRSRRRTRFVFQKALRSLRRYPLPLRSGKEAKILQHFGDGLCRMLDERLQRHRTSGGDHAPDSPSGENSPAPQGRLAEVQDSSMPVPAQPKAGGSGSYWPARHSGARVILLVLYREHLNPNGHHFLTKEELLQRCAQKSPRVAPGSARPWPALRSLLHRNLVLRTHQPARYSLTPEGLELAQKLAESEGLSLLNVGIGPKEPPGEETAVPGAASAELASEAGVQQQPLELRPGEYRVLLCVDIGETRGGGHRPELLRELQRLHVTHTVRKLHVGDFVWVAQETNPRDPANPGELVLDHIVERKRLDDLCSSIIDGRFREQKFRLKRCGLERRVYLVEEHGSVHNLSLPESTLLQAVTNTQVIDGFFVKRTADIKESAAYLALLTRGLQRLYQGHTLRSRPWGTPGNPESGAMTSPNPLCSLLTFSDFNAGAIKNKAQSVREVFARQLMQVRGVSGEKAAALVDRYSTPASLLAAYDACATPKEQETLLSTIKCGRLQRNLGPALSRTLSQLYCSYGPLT
Test: Binding affinity to human GST-tagged MUS81-[…] expressed in Escherichia coli BL21(DE3)Rosetta2 cells assessed as dissociation constant by Surface plasmon resonance analysis
measurement label: pKd
Lab note: report pKd as minus log10 of the concentration in molar units, number only.

O=C(N/N=C/c1cc(O)c(O)cc1O)c1cc2ccccc2cc1O; 6.22

Continue with the molecule presented below.
Query string: What pKd value was documented for this molecule, O=C(N/N=C/c1ccc(O)c(O)c1)c1cc2ccccc2cc1O [DYNASORE] ?
Result string: 5.38

* * *

target: MUS81-ECE2 (Homo sapiens, UniProt P0DPD6+Q96NY9); test: Inhibition of human GST-tagged MUS81-[…] expressed in Escherichia coli BL21(DE3)Rosetta2 cells incubated for 15 mins by FRET based assay
measurement label: IC50 (nM)
A number alone suffices; assume nM.

Query string: Requested read-out IC50, target or system MUS81-ECE2 (Homo sapiens, UniProt P0DPD6+Q96NY9), entry O=C(N/N=C/c1cc(O)c(O)cc1O)c1cc2ccccc2cc1O
Result string: 2900
